target-of-assay: T1, full length human tau protein 2N4R (hT40) (human, UniProt P10636 1-758)
T1 construct: recombinant; also called T441
T1 sequence (P10636 other isoform, or with tags, fused parts or gaps limits assumed): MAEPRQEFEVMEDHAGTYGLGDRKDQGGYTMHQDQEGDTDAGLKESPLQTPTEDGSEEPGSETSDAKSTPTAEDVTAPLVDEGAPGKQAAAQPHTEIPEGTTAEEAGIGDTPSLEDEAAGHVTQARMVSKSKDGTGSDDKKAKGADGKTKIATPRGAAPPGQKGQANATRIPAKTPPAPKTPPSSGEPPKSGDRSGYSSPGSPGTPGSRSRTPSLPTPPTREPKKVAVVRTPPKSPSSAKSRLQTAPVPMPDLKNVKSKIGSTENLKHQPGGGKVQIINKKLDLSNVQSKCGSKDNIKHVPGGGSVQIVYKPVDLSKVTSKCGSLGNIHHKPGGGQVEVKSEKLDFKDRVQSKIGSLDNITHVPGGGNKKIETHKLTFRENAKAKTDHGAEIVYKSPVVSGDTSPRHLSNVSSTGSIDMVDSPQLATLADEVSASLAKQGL
procedure-summary: SPR, hT40 immobilised, mAb analyte
measure-name: koff (s⁻¹)
API: value field is a number in s⁻¹; no unit string.

Query: Given E1B8 mAb (antibody, V domains shown) VH: QVQLQESGPSLVKPSQTLSLTCTVSGFSLTNYPVGWVRQAPGKALEWIGNIENDGSANYASALKSRLSITRDTSKNQVSLSLSSATTEDTAVYYCGREFGGSDGYTYFVDIDYWGPGLLVTVSS VL: QAVLTQPSSVSKSLGQSVSITCSGSSSNVGYGNYVSWFQQVPGSAPKILIYGATSRASGVPDRFSGSRSGNTATLTITSLQAEDEADYYCASYDGSSSGVFGSGTRLTVLG , state its recorded koff.
Reply: 0.00137

Data origin: patent US20250355001A1
